Cond: human, microsomes
Recorded Metric: Human Pred Cl.

>  <Smiles>
COC(=O)N[C@H](C(=O)N[C@@H](Cc1ccc(C#Cc2ccc(N3CC4CCC(C3)N4S(C)(=O)=O)nc2)cc1)[C@@H](O)CN(Cc1c(F)cc(-c2cnn(C(F)F)c2)cc1F)NC(=O)[C@@H](NC(=O)OC)C(C)(C)C(F)(F)F)C(C)(C)C(F)(F)F

>  <Recorded Metric>
Human Pred Cl.

>  <Result>
<0.11 L/H/kg

$$$$
>  <Smiles>
COC(=O)N[C@H](C(=O)N[C@@H](Cc1ccc(C#Cc2ccc(N3CC4CCC(C3)N4C3COC3)nc2)cc1)[C@@H](O)CN(Cc1c(F)cc(-c2nnc(C)o2)cc1F)NC(=O)[C@@H](NC(=O)OC)C(C)(C)C(F)(F)F)C(C)(C)C(F)(F)F

>  <Recorded Metric>
Human Pred Cl.

>  <Result>
0.18 L/H/kg

$$$$
